Just for reference, ChEMBL document CHEMBL4610071 is where these values come from.

system: HeLa; assay: Cytotoxicity against human HeLa cells incubated for 72 hrs by WST-8 assay; assay type: functional, cell-based
testReadout: pIC50
When answering, recall that pIC50 equals minus log10 of the concentration in mol/L, and write that number alone.

As a guide, the following entries are already answered.
molecule	targetSystem	pIC50
COc1cc(C[C@H](C)N)cc(O)c1-c1c(C)cc(OC)c2c(OC)cccc12 (atropisomer P)	HeLa	4.14
CN[C@@H](C)Cc1cc(O)c(-c2c(C)cc(OC)c3c(OC)cccc23)c(OC)c1 (atropisomer P)	HeLa	4.28

Q: Given the entry COc1cc(C[C@H](C)N)cc(O)c1-c1ccc(OC)c2c(OC)cc(C)cc12 (atropisomer P) , report its measured pIC50.
A: 4.95
